These entries and their values trace back to ChEMBL document CHEMBL1240350.

- System: Streptococcus pyogenes
- test description: Antibacterial activity against macrolide-resistant Streptococcus pyogenes 237 harboring mutation in L4 ribosomal protein after 20 passages and 10 compound-free subculturing by retest method
quantity kind: MIC

Kindly indicate its recorded MIC. Item: `CC[C@H]1OC(=O)[C@H](C)C(=O)[C@H](C)[C@@H](O[C@@H]2O[C@H](C)C[C@H](N(C)C)[C@H]2O)[C@](C)(OC)C[C@@H](C)C(=O)[C@H](C)[C@H]2N(CCCCn3cnc(-c4cccnc4)c3)C(=O)O[C@]12C`
1 µg/mL

Kindly indicate its recorded MIC. Item: `CC[C@H]1OC(=O)[C@H](C)[C@@H](O[C@H]2C[C@@](C)(OC)[C@@H](O)[C@H](C)O2)[C@H](C)[C@@H](O[C@@H]2O[C@H](C)C[C@H](N(C)C)[C@H]2O)[C@](C)(OC)C[C@@H](C)C(=O)[C@H](C)[C@@H](O)[C@]1(C)O`
1 µg/mL

Kindly indicate its recorded MIC. Item: `CCC[C@@H]1C[C@@H](C(=O)N[C@@H]([C@H]2O[C@H](SC)[C@H](O)[C@@H](O)[C@H]2O)[C@H](C)Cl)N(C)C1`
0.03 µg/mL

Kindly indicate its recorded MIC. Item: `CC[C@H]1OC(=O)[C@@](C)(F)C(=O)[C@H](C)[C@@H](O[C@@H]2O[C@H](C)C[C@H](N(C)C)[C@H]2O)[C@](C)(OC)C[C@@H](C)C(=O)[C@H](C)[C@H]2N(CCCCn3cc(-c4cccc(N)c4)nn3)C(=O)O[C@]12C`
0.5 µg/mL

Kindly indicate its recorded MIC. Item: `CC[C@H]1OC(=O)[C@H](C)[C@@H](O[C@H]2C[C@@](C)(OC)[C@@H](O)[C@H](C)O2)[C@H](C)[C@@H](O[C@@H]2O[C@H](C)C[C@H](N(C)C)[C@H]2O)[C@](C)(O)C[C@@H](C)CN(C)[C@H](C)[C@@H](O)[C@]1(C)O`
4 µg/mL
